FYI, the data here is from patent US20240116951A1.

# TARGET_OF_ASSAY: KRAS G12S (Homo sapiens, UniProt P01116, G12S)
# Construct: made in house; host or cells: E. coli, e.g. BL21 (DE3)
# Sequence (P01116 1-188 isoform P01116-2 G12S): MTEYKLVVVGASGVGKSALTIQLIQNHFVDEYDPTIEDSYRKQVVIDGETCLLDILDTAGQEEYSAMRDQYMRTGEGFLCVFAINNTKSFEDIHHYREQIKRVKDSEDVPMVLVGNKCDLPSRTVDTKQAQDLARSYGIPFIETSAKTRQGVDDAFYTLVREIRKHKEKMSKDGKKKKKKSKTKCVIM
# ASSAY: HTRF assay of K-Ras G12S interaction with SOS1 (PPI-HTRF)
# Type: binding
# RECORDED_CONDITIONS: 5 nM KRAS G12S, read-out: PPI-HTRF-5 nM KRAS G12S
# reported IC50; entries follow

These recorded examples may help you get a feel for the data.
CN1CCC[C@H]1COc1nc2c(c(N3CCC4(CCN4C(=O)n4cncn4)C3)n1)CCN(c1cccc3cccc(Cl)c13)C2 (some centres unmarked) [Compound 245] | > 5 µM
N#Cc1c(N)sc2c(F)ccc(-c3c(Cl)cc4c(N5CCC6(CCCCN6C(=O)C6CC6(F)F)C5)nc(OC[C@@]56CCCN5C[C@H](F)C6)nc4c3F)c12 (some centres unmarked) [Compound 240] | < 5 µM
Cc1ncn(C(=O)N2CC[C@@]23CCN(c2nc(OC[C@@]45CCCN4C[C@H](F)C5)nc4c(F)c(-c5ccc(F)c6sc(N)c(C#N)c56)c(Cl)cc24)C3)n1 (atropisomer, axis not shown; (aS)) [Compound 338] | < 5 µM

Query: Return IC50 for the following molecule: Nc1nc2c(-c3c(Cl)cc4c(N5CCC6(CCN6C(=O)n6cncn6)C5)nc(OC[C@@]56CCCN5C[C@H](F)C6)nc4c3F)ccc(F)c2s1 (some centres unmarked) [Compound 264]
Reply: < 5 µM

Query: Return IC50 for the following molecule: N#Cc1c(N)sc2c(F)ccc(-c3c(Cl)cc4c(N5CC[C@]6(CCN6C(=O)n6cncn6)C5)nc(OC[C@@]56CCCN5C[C@H](F)C6)nc4c3F)c12 [Compound 305]
Reply: < 5 µM
